# target_under_test: Solute carrier family 2, facilitated glucose transporter member 1 (Homo sapiens) (UniProt P11166)
# Sequence (P11166 whole entry): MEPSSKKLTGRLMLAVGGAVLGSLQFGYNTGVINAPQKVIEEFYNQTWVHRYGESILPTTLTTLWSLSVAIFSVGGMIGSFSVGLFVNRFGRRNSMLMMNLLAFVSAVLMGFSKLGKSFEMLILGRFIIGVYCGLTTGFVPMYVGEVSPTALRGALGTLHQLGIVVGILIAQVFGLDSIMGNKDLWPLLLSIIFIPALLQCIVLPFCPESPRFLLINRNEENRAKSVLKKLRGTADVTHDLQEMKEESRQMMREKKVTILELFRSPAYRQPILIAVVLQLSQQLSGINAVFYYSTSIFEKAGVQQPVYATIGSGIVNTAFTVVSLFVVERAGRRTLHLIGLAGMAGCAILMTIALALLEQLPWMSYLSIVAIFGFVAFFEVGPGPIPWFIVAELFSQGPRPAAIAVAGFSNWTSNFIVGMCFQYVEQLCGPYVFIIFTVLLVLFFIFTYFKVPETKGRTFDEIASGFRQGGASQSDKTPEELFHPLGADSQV
# assay_method_text: ST_JUDE_LEISH: Cytotoxicity at 2uM final concentration against transgenic Leishmania Mexicana promastigotes LmGLUT1 that are glucose transport deficient and complemented with the human glucose transporter GLUT1. Activity is measured by DNA content using SYBR green in vitro
# Type: functional
quantity_measured: inhibition (%)
Answers are plain numbers, in %.

Field: example entries. Status: answers known.
1. COc1cc2c(cc1S(=O)(=O)c1ccc(NC(=O)Nc3ccc(F)cc3)cc1)CCN(C)CC2 ... 3.01
2. C=C[C@]1(C)C[C@@H](OC(=O)NC(=O)C2CCN(C(=O)CSc3ccccc3)CC2)[C@]2(C)[C@H](C)CC[C@]3(CCC(=O)[C@H]32)[C@@H](C)[C@@H]1O ... 10.2
3. COc1ccc2nccc([C@@H](O)CN3CCC(NC/C=C/c4cccnc4)CC3)c2c1 ... 1.71
4. Nc1ncc(-c2ccsc2)c2ccc(-c3cnc[nH]3)cc12 ... 1.46
5. CN(C)CCC=C1c2ccccc2Sc2c(O)cc(Cl)cc21 ... -0.51
6. CC(=O)c1ccc(-c2ccc(C(=O)NCCCCN3CCC(c4ccc5c(c4OCC(N)=O)CCCC5)CC3)cc2)s1 ... 1.36
7. O=C(/C=C/c1ccc(Cl)c(Cl)c1)N1CCC(CCN2CCC(c3c[nH]c4ccncc34)CC2)CC1 ... 3.03
8. CCc1cn(CCOC)c2ccc(C(=O)N[C@@H](Cc3ccccc3)[C@H](O)CNC(C)(C)CCCC(C)C)cc12 ... 0.24

# map each compound to its inhibition
1. CCNc1cc(C(=O)N[C@@H](Cc2ccccc2)[C@H](O)CNC2CCC(C)(C)C2)cc(N2CCCCS2(=O)=O)c1 (some centres not stated)
2. NS(=O)(=O)c1cccc(Nc2nccc(-c3c(-c4cccc(NC(=O)c5c(F)cccc5F)c4)nn4ccccc34)n2)c1
3. Cc1ccc2[nH]c(C)c(Br)c(=O)c2c1
4. N#Cc1ccc2c(c1)CCN(CCC1CCC(NC(=O)/C=C/c3cccc4cc[nH]c34)CC1)CC2 (configuration not stated)

2.05
2.78
-1
8.95

====

Would you kindly list inhibition for each of these compounds?
# target_under_test: Glucose transporter (Leishmania mexicana)
# assay_method_text: ST_JUDE_LEISH: Cytotoxicity at 2uM final concentration against transgenic Leishmania Mexicana promastigotes LmGT2 that are glucose transport deficient and complemented with the L. Mexicana glucose transporter 2. Activity is measured by DNA content using SYBR green in vitro
# Format: functional

Field: example entries. Status: answers known.
1) O=C(CC1SC(N2N=C(c3cccs3)CC2c2ccccc2)=NC1=O)Nc1ccc(Cl)cc1 (centres undefined) ... -0.33%
2) CCCCc1cc(NCC)nc(Nc2cccc(OC)c2)n1 ... 19.1%
3) COc1ccc2nccc([C@@H](O)CN3CCC(NCc4nc5c(cc4F)SCC(=O)N5)C(F)C3)c2c1 (some centres undefined) ... 4.51%
4) COc1ccc(CCNCCCCCCNCCc2ccc(Cl)c3ccccc23)cc1OC ... 2.66%
5) O=C(NCCCN1CCCC1=O)c1cnc(N2CCC(Oc3ccccc3)CC2)c(Cl)c1 ... 0.19%

# map each compound to its inhibition
1. Cc1cccc2nc(-c3cccc(-c4cccc(NC(=O)Nc5ccc(Cl)c(Cl)c5)c4)c3)[nH]c12
2. SC(=Nc1ccc(Cl)c(Cl)c1)NN=Cc1ccccn1

-0.99%
-1.58%
